src = paper PMC9016704

Below, each entry is listed with its recorded IC50.
Target: furin (Homo sapiens)
Sequence (P09958 108-794): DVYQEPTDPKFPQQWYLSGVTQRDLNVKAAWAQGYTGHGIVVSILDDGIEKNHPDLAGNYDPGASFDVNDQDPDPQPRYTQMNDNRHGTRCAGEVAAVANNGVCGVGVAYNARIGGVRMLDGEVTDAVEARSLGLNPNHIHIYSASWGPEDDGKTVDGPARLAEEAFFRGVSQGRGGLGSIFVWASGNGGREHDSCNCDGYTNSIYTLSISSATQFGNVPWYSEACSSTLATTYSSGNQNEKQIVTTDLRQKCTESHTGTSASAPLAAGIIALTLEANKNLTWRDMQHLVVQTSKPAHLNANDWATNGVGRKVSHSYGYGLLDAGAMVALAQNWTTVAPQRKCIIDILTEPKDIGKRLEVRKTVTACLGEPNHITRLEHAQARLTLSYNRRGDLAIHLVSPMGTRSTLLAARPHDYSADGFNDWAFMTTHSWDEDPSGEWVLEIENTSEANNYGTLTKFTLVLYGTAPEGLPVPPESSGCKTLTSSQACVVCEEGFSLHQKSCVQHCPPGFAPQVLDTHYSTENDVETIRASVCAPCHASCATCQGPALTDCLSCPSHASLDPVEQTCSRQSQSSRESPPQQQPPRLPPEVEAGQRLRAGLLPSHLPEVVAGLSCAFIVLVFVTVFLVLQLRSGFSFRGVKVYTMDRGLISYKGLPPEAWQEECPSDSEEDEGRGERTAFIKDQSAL
Assay: biochemical
Conditions: IC50 #1
Use nM as the unit, but write only the number.

SMILES STRUCTURE	MEASUREMENT TARGET	REPORTED VALUE
CC(=O)NCC1CCN(Cc2cc(Oc3cnc(N4CCN(CCC(=O)O)CC4)nc3)nc(-c3cc(Cl)cc(Cl)c3)c2)CC1	furin (Homo sapiens)	0.5

## Task Lab request: please report IC50 under test system furin (Homo sapiens) for "COCCN1CCN(c2ccc(Oc3cc(CN4CCC(CNC(C)=O)CC4)cc(-c4cc(Cl)cc(Cl)c4)n3)cn2)CC1"
## Result 1
